Target: hNav1.3 (SCN3A) (Homo sapiens, UniProt Q9NY46)
Construct: expressed in transfected cells
Sequence (Q9NY46 1-1951 isoform Q9NY46-2): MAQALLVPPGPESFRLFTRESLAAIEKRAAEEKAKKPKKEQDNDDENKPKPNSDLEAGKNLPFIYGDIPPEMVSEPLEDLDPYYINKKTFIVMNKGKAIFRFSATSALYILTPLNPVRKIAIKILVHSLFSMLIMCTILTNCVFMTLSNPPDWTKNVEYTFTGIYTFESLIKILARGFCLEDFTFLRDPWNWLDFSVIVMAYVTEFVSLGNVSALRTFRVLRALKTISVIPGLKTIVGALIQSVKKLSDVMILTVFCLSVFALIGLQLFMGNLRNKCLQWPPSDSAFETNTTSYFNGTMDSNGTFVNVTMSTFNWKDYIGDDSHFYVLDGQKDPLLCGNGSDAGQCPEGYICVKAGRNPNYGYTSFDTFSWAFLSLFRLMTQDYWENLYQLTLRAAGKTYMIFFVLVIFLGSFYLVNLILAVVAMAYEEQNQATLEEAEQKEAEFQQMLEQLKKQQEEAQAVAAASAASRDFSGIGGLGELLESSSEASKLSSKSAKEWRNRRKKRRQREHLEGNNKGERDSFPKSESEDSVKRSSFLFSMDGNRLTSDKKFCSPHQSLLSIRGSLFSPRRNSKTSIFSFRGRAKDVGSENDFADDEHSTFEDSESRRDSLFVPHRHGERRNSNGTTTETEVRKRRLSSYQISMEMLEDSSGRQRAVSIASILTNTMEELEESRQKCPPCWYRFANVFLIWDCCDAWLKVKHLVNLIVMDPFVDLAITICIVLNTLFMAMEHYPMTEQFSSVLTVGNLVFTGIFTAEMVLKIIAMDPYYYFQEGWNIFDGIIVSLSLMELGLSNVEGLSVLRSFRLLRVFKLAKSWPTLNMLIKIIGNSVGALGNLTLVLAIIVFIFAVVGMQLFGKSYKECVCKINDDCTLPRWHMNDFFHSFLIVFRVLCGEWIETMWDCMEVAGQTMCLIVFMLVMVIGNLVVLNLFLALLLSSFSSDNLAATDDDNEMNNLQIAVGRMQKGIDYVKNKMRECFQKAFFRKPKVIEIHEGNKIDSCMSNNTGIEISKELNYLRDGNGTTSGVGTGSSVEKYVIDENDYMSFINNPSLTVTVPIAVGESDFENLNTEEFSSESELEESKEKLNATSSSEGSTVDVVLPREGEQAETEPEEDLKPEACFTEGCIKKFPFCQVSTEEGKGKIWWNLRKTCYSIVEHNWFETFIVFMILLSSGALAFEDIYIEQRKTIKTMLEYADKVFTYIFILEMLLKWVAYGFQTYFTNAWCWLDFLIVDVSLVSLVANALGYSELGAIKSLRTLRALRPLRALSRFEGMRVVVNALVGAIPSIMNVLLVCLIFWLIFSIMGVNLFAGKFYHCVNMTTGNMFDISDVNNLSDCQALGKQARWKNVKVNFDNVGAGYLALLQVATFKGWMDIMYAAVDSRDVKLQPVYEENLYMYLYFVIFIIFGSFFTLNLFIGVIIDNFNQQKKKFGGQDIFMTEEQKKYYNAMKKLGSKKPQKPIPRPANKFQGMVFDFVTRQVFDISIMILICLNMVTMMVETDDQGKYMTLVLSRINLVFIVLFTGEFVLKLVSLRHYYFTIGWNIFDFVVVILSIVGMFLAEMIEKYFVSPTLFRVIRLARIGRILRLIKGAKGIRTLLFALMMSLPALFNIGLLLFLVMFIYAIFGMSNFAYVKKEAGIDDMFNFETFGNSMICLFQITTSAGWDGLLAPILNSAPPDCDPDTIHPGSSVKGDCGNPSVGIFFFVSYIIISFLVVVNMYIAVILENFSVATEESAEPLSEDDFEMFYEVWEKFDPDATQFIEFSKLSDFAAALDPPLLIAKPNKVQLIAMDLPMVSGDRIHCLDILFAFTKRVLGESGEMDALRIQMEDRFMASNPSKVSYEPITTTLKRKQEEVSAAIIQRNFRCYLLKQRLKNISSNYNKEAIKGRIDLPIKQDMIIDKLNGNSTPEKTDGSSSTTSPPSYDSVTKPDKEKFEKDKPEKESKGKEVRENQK
Sequence (Q07699 19-218 partner): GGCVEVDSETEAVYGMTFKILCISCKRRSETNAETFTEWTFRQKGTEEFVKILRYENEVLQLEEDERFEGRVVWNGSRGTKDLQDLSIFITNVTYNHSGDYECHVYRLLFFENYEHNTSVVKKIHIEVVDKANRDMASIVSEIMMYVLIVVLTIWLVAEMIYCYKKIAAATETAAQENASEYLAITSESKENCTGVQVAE
Sequence (O60939 30-215 partner): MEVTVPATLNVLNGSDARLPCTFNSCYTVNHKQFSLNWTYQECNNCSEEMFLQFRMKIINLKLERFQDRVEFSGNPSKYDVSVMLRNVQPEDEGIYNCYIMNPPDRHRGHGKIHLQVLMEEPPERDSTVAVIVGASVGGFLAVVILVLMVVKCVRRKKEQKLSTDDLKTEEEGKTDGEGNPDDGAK
Assay: Voltage-dependent inhibition of the Nav1.3 sodium channel
Assay type: cell-based
Conditions: voltage-dependent block of peak current, read-out: Nav 1.3-VDB 1 uM
Listed next: entries and their corresponding inhibition at 1 µM.
measuredProperty: inhibition at 1 µM (%)

- compound: "Fc1cc(-c2ccc3onc(OCc4ncccn4)c3c2)ccc1Cl [Example 8]"
  system: "hNav1.3 (SCN3A) (Homo sapiens, UniProt Q9NY46)"
  measuredProperty: "inhibition at 1 µM"
  numericValue: 6.4
- compound: "CC(COc1noc2ccc(-c3ccc(OC(F)(F)F)cc3)cc12)n1cccn1 (centres unmarked) [Example 68]"
  system: "hNav1.3 (SCN3A) (Homo sapiens, UniProt Q9NY46)"
  measuredProperty: "inhibition at 1 µM"
  numericValue: 27.1
- compound: "Cc1ccnc(COc2noc3ccc(-c4ccc(OC(F)(F)F)cc4)cc23)n1 [Example 5]"
  system: "hNav1.3 (SCN3A) (Homo sapiens, UniProt Q9NY46)"
  measuredProperty: "inhibition at 1 µM"
  numericValue: 13.9
- compound: "FC(F)(F)COc1ccc(-c2ccc3onc(OCc4ncccn4)c3c2)cn1 [Example 21]"
  system: "hNav1.3 (SCN3A) (Homo sapiens, UniProt Q9NY46)"
  measuredProperty: "inhibition at 1 µM"
  numericValue: 11.2
- compound: "Cc1nnc(COc2noc3ccc(-c4ccc(OC(F)(F)F)cc4)cc23)o1 [Example 99]"
  system: "hNav1.3 (SCN3A) (Homo sapiens, UniProt Q9NY46)"
  measuredProperty: "inhibition at 1 µM"
  numericValue: 41.4
- compound: "COc1cc(-c2ccc(OC(F)(F)F)cc2C)cc2c(OCc3ncccn3)noc12 [Example 25]"
  system: "hNav1.3 (SCN3A) (Homo sapiens, UniProt Q9NY46)"
  measuredProperty: "inhibition at 1 µM"
  numericValue: 12.3
- compound: "FC(F)(F)Oc1cccc(-c2ccc3onc(OCc4ncccn4)c3c2)c1 [Example 10]"
  system: "hNav1.3 (SCN3A) (Homo sapiens, UniProt Q9NY46)"
  measuredProperty: "inhibition at 1 µM"
  numericValue: 8.5
- compound: "FC(F)(F)Oc1ccc(-c2ccc3onc(OCc4cn5ccccc5n4)c3c2)cc1 [Example 51]"
  system: "hNav1.3 (SCN3A) (Homo sapiens, UniProt Q9NY46)"
  measuredProperty: "inhibition at 1 µM"
  numericValue: 26.6

* * *

Molecular target: wild-type human cardiac sodium channel, hNav1.5 (Homo sapiens)
Test: Late INa screening assay (QPatch whole cell patch clamp, Tefluthrin-induced late current)
Type: cell-based
Settings: 0.3 uM; HEK293 hNav1.5; percent block of late INa

- compound: "FC(F)(F)Oc1ccc(-c2ccc3onc(OCc4ncco4)c3c2)cc1 [Example 53]"
  system: "wild-type human cardiac sodium channel, hNav1.5 (Homo sapiens)"
  inhibition at 0.3 µM, %: 31.1
- compound: "CC(C)[C@H](N)COc1noc2ccc(-c3ccc(OC(F)(F)F)cc3)cc12 [Example 118]"
  system: "wild-type human cardiac sodium channel, hNav1.5 (Homo sapiens)"
  inhibition at 0.3 µM, %: 22.5
- compound: "FC(F)(F)Oc1ccc(-c2ccc3onc(OC[C@@H]4COCCN4)c3c2)cc1 [Example 113]"
  system: "wild-type human cardiac sodium channel, hNav1.5 (Homo sapiens)"
  inhibition at 0.3 µM, %: 43.9
- compound: "CCn1ccnc1COc1noc2ccc(-c3ccc(OC(F)(F)F)cc3)cc12 [Example 47]"
  system: "wild-type human cardiac sodium channel, hNav1.5 (Homo sapiens)"
  inhibition at 0.3 µM, %: 20
- compound: "Cc1nnc(C(C)Oc2noc3ccc(-c4ccc(OC(F)(F)F)cc4)cc23)o1 (stereo not drawn) [Example 153]"
  system: "wild-type human cardiac sodium channel, hNav1.5 (Homo sapiens)"
  inhibition at 0.3 µM, %: 51.3
- compound: "FC(F)(F)Oc1ccc(-c2ccc3onc(OC[C@@H]4CCCN4)c3c2)cc1 [Example 108]"
  system: "wild-type human cardiac sodium channel, hNav1.5 (Homo sapiens)"
  inhibition at 0.3 µM, %: 30.1
- compound: "O=C1OCCN1CCOc1noc2ccc(-c3ccc(OC(F)(F)F)cc3)cc12 [Example 75]"
  system: "wild-type human cardiac sodium channel, hNav1.5 (Homo sapiens)"
  inhibition at 0.3 µM, %: 29.3
- compound: "COc1cc(OC(F)(F)F)ccc1-c1ccc2onc(OCc3ncccn3)c2c1 [Example 4]"
  system: "wild-type human cardiac sodium channel, hNav1.5 (Homo sapiens)"
  inhibition at 0.3 µM, %: 29.7
- compound: "FC(F)(F)Oc1ccc(-c2ccc3onc(OCc4ncccn4)c3c2)cc1 [Example 1]"
  system: "wild-type human cardiac sodium channel, hNav1.5 (Homo sapiens)"
  inhibition at 0.3 µM, %: 55

* * *

Molecular target: wild-type human cardiac sodium channel, hNav1.5 (Homo sapiens, UniProt Q14524)
Sequence (Q14524 whole entry): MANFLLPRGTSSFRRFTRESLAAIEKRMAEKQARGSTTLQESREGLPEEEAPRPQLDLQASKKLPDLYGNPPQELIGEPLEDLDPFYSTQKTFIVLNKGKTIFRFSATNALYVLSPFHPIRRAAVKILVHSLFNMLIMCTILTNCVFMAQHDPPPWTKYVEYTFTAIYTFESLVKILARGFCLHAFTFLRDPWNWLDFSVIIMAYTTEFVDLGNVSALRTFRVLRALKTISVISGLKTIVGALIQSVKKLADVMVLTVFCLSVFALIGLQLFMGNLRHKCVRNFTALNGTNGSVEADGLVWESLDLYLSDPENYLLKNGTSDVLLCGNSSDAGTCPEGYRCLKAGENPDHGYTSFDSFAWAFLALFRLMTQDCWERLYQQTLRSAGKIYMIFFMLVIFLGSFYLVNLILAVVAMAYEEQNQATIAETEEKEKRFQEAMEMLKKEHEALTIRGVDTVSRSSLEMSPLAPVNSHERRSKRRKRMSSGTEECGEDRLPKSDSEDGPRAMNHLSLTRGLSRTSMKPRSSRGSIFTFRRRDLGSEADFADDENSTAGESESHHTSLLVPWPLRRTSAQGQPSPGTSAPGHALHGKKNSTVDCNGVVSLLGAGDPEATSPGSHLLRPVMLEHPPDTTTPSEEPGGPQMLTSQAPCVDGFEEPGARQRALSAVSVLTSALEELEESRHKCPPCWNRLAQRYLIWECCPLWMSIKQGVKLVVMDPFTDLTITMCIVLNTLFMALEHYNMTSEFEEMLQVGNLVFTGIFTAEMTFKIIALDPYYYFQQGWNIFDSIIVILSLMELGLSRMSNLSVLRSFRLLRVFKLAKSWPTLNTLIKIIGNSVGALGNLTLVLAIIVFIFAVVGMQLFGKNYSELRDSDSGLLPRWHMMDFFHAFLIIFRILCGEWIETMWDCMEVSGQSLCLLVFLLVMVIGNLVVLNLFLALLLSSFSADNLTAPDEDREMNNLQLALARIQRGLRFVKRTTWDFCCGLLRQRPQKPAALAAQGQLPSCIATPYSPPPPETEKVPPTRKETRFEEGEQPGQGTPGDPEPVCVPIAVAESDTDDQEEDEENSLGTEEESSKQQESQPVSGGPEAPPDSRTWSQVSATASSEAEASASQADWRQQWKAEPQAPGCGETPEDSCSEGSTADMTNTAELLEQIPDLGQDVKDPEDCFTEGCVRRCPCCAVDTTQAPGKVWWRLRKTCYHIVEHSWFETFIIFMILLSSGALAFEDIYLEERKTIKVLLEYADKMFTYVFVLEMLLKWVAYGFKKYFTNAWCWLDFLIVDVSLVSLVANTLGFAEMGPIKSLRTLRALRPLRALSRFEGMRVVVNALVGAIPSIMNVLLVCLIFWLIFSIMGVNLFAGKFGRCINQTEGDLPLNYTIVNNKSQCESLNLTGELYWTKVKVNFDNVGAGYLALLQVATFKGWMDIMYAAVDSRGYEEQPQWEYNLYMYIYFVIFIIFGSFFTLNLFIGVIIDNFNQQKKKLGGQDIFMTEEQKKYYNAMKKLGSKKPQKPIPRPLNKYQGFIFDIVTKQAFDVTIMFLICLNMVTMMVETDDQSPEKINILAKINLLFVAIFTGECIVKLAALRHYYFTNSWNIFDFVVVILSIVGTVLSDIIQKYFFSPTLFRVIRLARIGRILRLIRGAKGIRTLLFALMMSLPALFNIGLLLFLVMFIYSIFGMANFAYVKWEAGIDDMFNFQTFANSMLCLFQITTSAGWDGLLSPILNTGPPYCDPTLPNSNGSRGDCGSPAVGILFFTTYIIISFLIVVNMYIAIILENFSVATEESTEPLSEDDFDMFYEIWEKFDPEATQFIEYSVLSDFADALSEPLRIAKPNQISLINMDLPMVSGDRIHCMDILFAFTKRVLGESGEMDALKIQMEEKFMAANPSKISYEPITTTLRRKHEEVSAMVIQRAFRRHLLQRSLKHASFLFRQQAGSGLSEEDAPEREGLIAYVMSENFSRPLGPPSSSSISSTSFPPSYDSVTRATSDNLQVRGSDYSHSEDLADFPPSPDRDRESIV
Experiment: Peak INa screening assay (tonic block and use-dependent block)
Format: cell-based
Conditions: tonic block of Peak INa, 0.1 Hz, holding -100 mV, read-out: Peak TB 3 uM
Procedure: The cardiac late sodium current (Late INa) and peak sodium current (Peak INa) assays are performed on an automated electrophysiology platform, QPatch 16X or QPatch HT (Sophion Bioscience, Copenhagen, Denmark) using the whole cell patch clamp technique to measure currents through the cell membrane. […] Compounds were evaluated for their effect Nav1.5 Peak INa. […]
inhibition at 3 µM of 30% or higher: Met. Under 30%: Not met.

- itemSmiles: "FC(F)(F)Oc1ccc(-c2ccc3onc(OCc4cccnn4)c3c2)cc1"
  classification: "Not met"
- itemSmiles: "CC(C)c1nccn1-c1noc2ccc(-c3ccc(OC(F)(F)F)cc3)cc12"
  classification: "Met"
- itemSmiles: "FC(F)(F)Oc1ccc(-c2ccc3onc(OCCNc4ncccn4)c3c2)cc1"
  classification: "Not met"
- itemSmiles: "Cc1cc(-c2ccc(OC(F)(F)F)cc2)cc2c(OCc3ncccn3)noc12"
  classification: "Met"
- itemSmiles: "Cc1cc(-c2ccc(OC(F)(F)F)cc2)cc2c(OCc3ncco3)noc12"
  classification: "Met"

* * *

Target: hNaV1.2 (SCN2A) (Homo sapiens)
Construct: expressed in transfected cells
Assay: Use-dependent inhibition of the CNS Nav1.2 sodium channel
Type: cell-based
Conditions: use-dependent block, 25 Hz, pulse 20, read-out: Nav1.2 UDB 25 Hz 10 uM
measuredProperty: inhibition at 10 µM (%)

- molecule: "Cc1cc(OC(F)(F)F)ccc1-c1cc2c(OCc3ncccn3)noc2cc1C"
  measuredProperty: "inhibition at 10 µM"
  outputUnit: "%"
  valuePrefix: "<"
  numericValue: 5
- molecule: "CCn1cncc1COc1noc2ccc(-c3ccc(OC(F)(F)F)cc3)cc12"
  measuredProperty: "inhibition at 10 µM"
  outputUnit: "%"
  valuePrefix: "="
  numericValue: 49.9
- molecule: "Cn1cc(COc2noc3ccc(-c4ccc(OC(F)(F)F)cc4)cc23)nn1"
  measuredProperty: "inhibition at 10 µM"
  outputUnit: "%"
  valuePrefix: "="
  numericValue: 25.4
- molecule: "FC(F)(F)Oc1ccc(-c2ccc3onc(OCc4ncccn4)c3c2)cc1"
  measuredProperty: "inhibition at 10 µM"
  outputUnit: "%"
  valuePrefix: "="
  numericValue: 10.2
- molecule: "CC(=O)N1CCC[C@H]1COc1noc2ccc(-c3ccc(OC(F)(F)F)cc3)cc12"
  measuredProperty: "inhibition at 10 µM"
  outputUnit: "%"
  valuePrefix: "="
  numericValue: 39.3
- molecule: "FC(F)(F)Oc1ccc(-c2ccc3onc(OCCNc4ncccn4)c3c2)cc1"
  measuredProperty: "inhibition at 10 µM"
  outputUnit: "%"
  valuePrefix: "<"
  numericValue: 5
- molecule: "CC(Oc1noc2ccc(-c3ccc(OC(F)(F)F)cc3)cc12)c1ccccn1 (stereo not shown)"
  measuredProperty: "inhibition at 10 µM"
  outputUnit: "%"
  valuePrefix: "<"
  numericValue: 5

* * *

Target: hNaV1.2 (SCN2A) (Homo sapiens)
Construct: expressed in transfected cells
Test: Use-dependent inhibition of the CNS Nav1.2 sodium channel
Type: cell-based
Conditions: use-dependent block, 25 Hz, pulse 20, read-out: Nav1.2 UDB 25 Hz 10 uM
measuredProperty: inhibition at 10 µM (%)

- itemSmiles: "Fc1cc(-c2ccc(OC(F)(F)F)cc2)cc2c(OCc3ncccn3)noc12"
  measuredProperty: "inhibition at 10 µM"
  outputUnit: "%"
  valuePrefix: "<"
  numericValue: 5
- itemSmiles: "FC(F)(F)Oc1ccc(-c2ccc3onc(OCc4cnccn4)c3c2)cc1"
  measuredProperty: "inhibition at 10 µM"
  outputUnit: "%"
  valuePrefix: "="
  numericValue: 18.6
- itemSmiles: "FC(F)(F)Oc1ccc(-c2ccc3onc(NCc4ncccn4)c3c2)cc1"
  measuredProperty: "inhibition at 10 µM"
  outputUnit: "%"
  valuePrefix: "<"
  numericValue: 5
- itemSmiles: "CN1CCC[C@H]1COc1noc2ccc(-c3ccc(OC(F)(F)F)cc3)cc12"
  measuredProperty: "inhibition at 10 µM"
  outputUnit: "%"
  valuePrefix: "="
  numericValue: 89.6
- itemSmiles: "COc1ccnc(COc2noc3ccc(-c4ccc(OC(F)(F)F)cc4)cc23)n1"
  measuredProperty: "inhibition at 10 µM"
  outputUnit: "%"
  valuePrefix: "<"
  numericValue: 5
